In what follows, each item is paired with its pIC50 for 72 kDa type IV collagenase (Rattus norvegicus).
pIC50: −log10 of the molar value.
Experimental readout: pIC50

(a) O=C(/C=C/c1ccc(O)c2c1[C@H](C(=O)O)[C@@H](c1ccc(O)c(O)c1)O2)O[C@H](Cc1ccc(O)c(O)c1)C(=O)O
(b) O=C(/C=C/c1ccc(O)c(O)c1)O[C@H](Cc1ccc(O)c(O)c1)C(=O)O
Which of the two gives a bigger number for pIC50: a or b ? Refer to your chosen item by its label in the answer.
a

###

Target: UniProt P33436
pIC50: −log10 of the molar value.
Experimental readout: pIC50

See these solved cases before continuing.
# Molecule, pIC50
rows = [
    ("COc1cc(C[C@@H](OC(=O)/C=C/c2ccc3c(c2)O[C@@H](C(=O)O)[C@@H](c2ccc(O)c(O)c2)O3)C(=O)O)ccc1O [CLINOPODIC ACID F]", "< 4.00"),
    ("COc1cc(C[C@@H](OC(=O)/C=C/c2ccc(O)c3c2[C@H](C(=O)O)[C@@H](c2ccc(O)c(OC)c2)O3)C(=O)O)ccc1O [CLINOPODIC ACID H]", "< 4.00"),
]

Proceeding to the next molecule to report its pIC50.
Which value of pIC50 has been reported for COc1cc(C[C@@H](OC(=O)/C=C/c2ccc(O)c(O)c2)C(=O)O)ccc1O [CLINOPODIC ACID B] in the records?
< 4.00

Source: ChEMBL document CHEMBL1154248
